systemName: Urease (type IX from Jack Beans) (Canavalia ensiformis, UniProt P07374)
Construct: purchased Sigma (St. Louis, Mo.) type IX
Sequence (P07374 whole entry, looked up): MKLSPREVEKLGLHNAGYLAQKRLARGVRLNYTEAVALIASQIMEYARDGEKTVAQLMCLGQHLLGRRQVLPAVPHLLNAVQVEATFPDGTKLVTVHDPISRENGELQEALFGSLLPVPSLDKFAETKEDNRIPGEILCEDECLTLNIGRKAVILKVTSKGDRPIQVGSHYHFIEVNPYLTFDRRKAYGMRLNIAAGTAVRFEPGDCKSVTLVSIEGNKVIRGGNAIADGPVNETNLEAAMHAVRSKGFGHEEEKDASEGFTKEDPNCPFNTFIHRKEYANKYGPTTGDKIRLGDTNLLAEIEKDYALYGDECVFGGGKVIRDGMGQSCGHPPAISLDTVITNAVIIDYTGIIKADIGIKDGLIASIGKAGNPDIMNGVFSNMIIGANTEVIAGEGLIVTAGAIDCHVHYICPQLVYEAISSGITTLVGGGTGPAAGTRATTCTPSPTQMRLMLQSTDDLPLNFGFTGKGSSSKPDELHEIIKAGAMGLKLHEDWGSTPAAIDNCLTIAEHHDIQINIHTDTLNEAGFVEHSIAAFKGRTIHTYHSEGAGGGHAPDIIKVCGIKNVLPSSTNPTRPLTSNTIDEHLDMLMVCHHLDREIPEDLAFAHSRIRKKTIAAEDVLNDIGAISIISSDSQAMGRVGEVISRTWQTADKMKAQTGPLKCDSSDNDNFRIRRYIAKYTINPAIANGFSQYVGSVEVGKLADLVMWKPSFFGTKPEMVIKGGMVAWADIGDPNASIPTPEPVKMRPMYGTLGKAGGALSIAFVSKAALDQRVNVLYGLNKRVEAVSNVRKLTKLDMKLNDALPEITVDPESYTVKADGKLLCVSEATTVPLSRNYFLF
assayText: biochemical
Type: biochemical
appliedConditions: KI, urease entrapped in bulk sodium silicate glass, platereader, 20 mM urea
propertyMeasured: Ki (mM)
Just the number in mM, nothing appended.

Entry under test: `NC(N)=S` . Its Ki was 54
